Let's look at some compounds and their measured half-life.
experiment: Half life in rat at 1 mg/kg, iv
Type: ADME, organism-based
Set-up: dose 1 mg/kg, route intravenous
condition_context: in vivo
Give a bare numeral; the unit h is implied.

Identify measured half-life associated with Cc1[nH]c(-c2ccccc2)cc1C(=O)NCCCN1CCN(c2cccc(Cl)c2Cl)CC1.Cl
1.76

Now consider a different compound.
Identify measured half-life associated with Cc1c(C(=O)NCCCN2CCN(c3cccc(Cl)c3Cl)CC2)cc(-c2ccccc2)n1C.Cl
2.82

----------
target_or_system: D(2) dopamine receptor (Homo sapiens, UniProt P14416)
Sequence (P14416 whole entry): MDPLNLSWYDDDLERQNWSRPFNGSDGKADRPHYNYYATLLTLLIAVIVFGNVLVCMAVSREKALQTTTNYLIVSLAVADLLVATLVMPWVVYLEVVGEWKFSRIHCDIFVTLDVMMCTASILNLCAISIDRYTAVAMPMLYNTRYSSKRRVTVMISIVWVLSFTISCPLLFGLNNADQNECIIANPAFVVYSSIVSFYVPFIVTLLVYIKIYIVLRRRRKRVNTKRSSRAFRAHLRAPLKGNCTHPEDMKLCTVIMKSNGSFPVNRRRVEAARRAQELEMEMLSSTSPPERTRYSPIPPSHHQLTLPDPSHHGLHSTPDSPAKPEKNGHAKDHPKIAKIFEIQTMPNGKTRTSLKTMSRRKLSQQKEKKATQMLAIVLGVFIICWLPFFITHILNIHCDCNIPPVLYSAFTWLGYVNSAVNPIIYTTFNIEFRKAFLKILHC
experiment: Inhibition of dopamine D2 receptor
observation_type: pIC50
pIC50 is defined as minus the log10 of a concentration measured in mol/L.

Identify measured pIC50 associated with Cc1c(C(=O)NCCCN2CCN(c3cccc(Cl)c3Cl)CC2)cc(-c2ccccc2)n1C
5.59

Identify measured pIC50 associated with Cc1[nH]c(-c2ccccc2)cc1C(=O)NCCCN1CCN(c2cccc(Cl)c2Cl)CC1
5.97

More entries:
Identify measured pIC50 associated with CCCn1c(-c2ccccc2)cc(C(=O)NCCCN2CCN(c3cccc(Cl)c3Cl)CC2)c1C
5.43
